Test system: A498 renal
Test: NCI tumour cell line growth inhibition, 48 h
Each entry below lists one item and its recorded TGI value.

| MOLECULE | TGI |
| --- | --- |
| O=c1[nH]c(=O)n(CCOc2ccccc2)cc1Nc1ccccc1 | > 100 µM |
| O=S(=O)(SC1=NCCN1)c1ccc2ccccc2c1 | > 100 µM |
| C[N+](C)(C)CCCSc1nc2ccccc2[nH]1 | > 100 µM |
| O=c1[nH]nc(-c2ccccc2)n1-c1ccncc1 | > 100 µM |
| COc1ccc(/C=C2\CCC(C)C3C2=NN(c2ccccc2)C3c2ccc(OC)c(OC)c2)cc1OC (stereo unspecified) | 12.3 µM |

Alright, here's another molecule for you.
Request: Entry CC[C@@]1(c2ccccc2)C2=C(CC(C)(C)CC2=O)Nc2[nH]ncc21 has what TGI?
Result: 56.3 µM

----------
TGI overview
Tested on: MDA-MB-435
Assay: NCI tumour cell line growth inhibition, 48 h

| MOLECULE | TGI |
| --- | --- |
| CO/C(N)=C(\C#N)N=Cc1ccco1 | > 100 µM |
| N#CC1C(=O)N(c2ccccc2)NC12OC(=O)c1ccncc12 (stereo not drawn) | > 20 µM |

Now, please, on to the next molecule.
Request: Please state recorded TGI (tested on MDA-MB-435) of O=C1CSSCC(=O)Nc2ccccc2N1
Result: > 100 µM

----------
System: SF-539 CNS
Assay: NCI tumour cell line growth inhibition, 48 h; in the data active means GI50 below about 0.43 µM; inactive means the rest
Entry note: the call must match one of active, inactive

Known results for molecules:
| MOLECULE | LABEL_CLASS |
| --- | --- |
| Nc1nc2c(nnn2C2CC(O)C(CO)O2)c(=O)[nH]1 (stereo unspecified) | inactive |
| O=C(O)CCNC1CCCCC1 | inactive |
| Cc1cc2c(cc1Cl)SC1=NN(C)S(=O)N1S2(=O)=O (stereo unspecified) | inactive |
| O=C(Nc1ccncc1)C(=O)c1cn(S(=O)(=O)c2cccc(F)c2)c2ccccc12 | inactive |
| COc1cc[nH]c1/C=C1\C(=O)Nc2ccc(F)c(C#CC3(O)CCNCC3)c21 | active |

Request: In this assay, the call recorded for CCCC(=O)OCC1OC(n2cnc3c(=S)nc[nH]c32)C(OC(=O)CCC)C1OC(=O)CCC (stereo unspecified) was what?
Result: inactive

Request: Please state the recorded outcome for this molecule: CCCCCCCC(=O)OCC/C=C/C1OC1C1OC(=O)/C=C\C=C\c2nc(oc2C)/C=C(/C)CCC2OC2C1OC(=O)NC(C)=O (stereo unspecified)
Result: active

Request: Tell me the recorded outcome of this test for O=C(Nc1ccc(-c2nc(N3CCOCC3)c3cccn3n2)cc1)Nc1cccnc1 .
Result: active

----------
Measured TGI of individual entries
System: CCRF-CEM leukemia
Assay: NCI tumour cell line growth inhibition, 48 h

// solved cases for TGI follow
| COMPOUND | TARGET_ENTITY | PROPERTY | VALUE |
| --- | --- | --- | --- |
| COc1cc(C(=O)CBr)c(OC)cc1C | CCRF-CEM leukemia | TGI | > 100 µM |
| Clc1ccccc1-c1nc2ccc(C34CC5CC(CC(C5)C3)C4)cc2[nH]1 | CCRF-CEM leukemia | TGI | > 100 µM |
| CC/C=C\C[C@H](F)C/C=C1/C(=O)C=C[C@@H]1C/C=C\CCCC(=O)O | CCRF-CEM leukemia | TGI | 11.1 µM |
| O=P1(O)c2ccccc2CCc2ccccc21 | CCRF-CEM leukemia | TGI | > 100 µM |
| O=C(N/C(=C\c1cccc([N+](=O)[O-])c1)c1nc2ccc([N+](=O)[O-])cc2[nH]1)c1ccccc1 | CCRF-CEM leukemia | TGI | 87.6 µM |

Request: Look up TGI: O=c1[nH]nc(-c2ccccc2)n1-c1ccncc1
Result: > 100 µM

Request: Entry O=C(Nc1ccncc1)C(=O)c1cn(S(=O)(=O)c2cccc(F)c2)c2ccccc12 has what TGI?
Result: > 100 µM

Request: For the compound shown here, CCCCCCCC[C@@H](O)CC(=O)N[C@@H](CC(N)=O)C(=O)N[C@@H](CCC(N)=O)C(=O)N[C@@H](CC(=O)c1cc(C)cc(O)c1C(=O)c1c(O)cccc1O)CC(C)C , give the reported TGI.
Result: > 100 µM

Request: What does the data say about its TGI? Entry: CC(=O)OCC1OC(NC(=S)N/N=C2\CC(c3ccccc3)Oc3ccccc32)C(OC(C)=O)C(OC(C)=O)C1OC(C)=O (centres undefined)
Result: > 100 µM

Every entry's value here was drawn from PubChem BioAssay (NCI).
